Tested System: UniProt Q08210
Test: Literature inhibition data for soluble recombinant PfDHODH (s-PfDHODH), dodecylubiquinone as substrate
Assay type: biochemical
Applied Conditions: converted from literature IC50 assuming competitive inhibition against DQ (Cheng and Prusoff); read-out: PfDHODH Ki
Would you mind classing the entries by Ki? Ranges: b0 (below 0.3 µM), b1 (0.3 µM to below 0.8 µM), b2 (0.8 µM or more)

Known results for compounds:
Cc1cc(Nc2ccc(Cl)c(C(F)(F)F)c2)n2ncnc2n1	b1
Cc1cc(Nc2ccc(OC(F)(F)F)cc2)n2ncnc2n1	b1
Cc1cccc(Nc2cc(C)nc3ncnn23)c1	b2

Hi there! Could you help me figure out the category for Cc1cc(Nc2ccc(C)c(C(F)(F)F)c2)n2ncnc2n1 please?
b1

Hi there! Could you help me figure out the category for Cc1cc(Nc2cc(F)c(F)cc2F)n2ncnc2n1 please?
b2

Hi there! Could you help me figure out the category for Cc1cc(Nc2ccc(C)c(C)c2)n2ncnc2n1 please?
b0

Hi there! Could you help me figure out the category for Cc1cc(Nc2ccc3ncccc3c2)n2ncnc2n1 please?
b1

Hi there! Could you help me figure out the category for Cc1c(C(=O)Nc2cc(Cl)cc(Cl)c2)cccc1[N+](=O)[O-] please?
b0

Hi there! Could you help me figure out the category for C/C(O)=C(/C#N)C(=O)Nc1ccc(-c2cccc(Cl)c2)c(Cl)c1 please?
b2

Hi there! Could you help me figure out the category for Cc1cc(Nc2ccc(F)c(F)c2)n2ncnc2n1 please?
b2

Hi there! Could you help me figure out the category for Cc1cc(Nc2ccc(Br)cc2)n2ncnc2n1 please?
b1

Hi there! Could you help me figure out the category for CCCNC(=O)c1ccc(-n2c(C)nc3ccccc32)s1 please?
b0

Hi there! Could you help me figure out the category for FC(F)(F)c1cc(Nc2ccc3ccccc3c2)n2ncnc2n1 please?
b0

* * *

Tested System: s-PfDHODH (Plasmodium falciparum, UniProt Q08210)
Sequence (Q08210 158-569 limits assumed): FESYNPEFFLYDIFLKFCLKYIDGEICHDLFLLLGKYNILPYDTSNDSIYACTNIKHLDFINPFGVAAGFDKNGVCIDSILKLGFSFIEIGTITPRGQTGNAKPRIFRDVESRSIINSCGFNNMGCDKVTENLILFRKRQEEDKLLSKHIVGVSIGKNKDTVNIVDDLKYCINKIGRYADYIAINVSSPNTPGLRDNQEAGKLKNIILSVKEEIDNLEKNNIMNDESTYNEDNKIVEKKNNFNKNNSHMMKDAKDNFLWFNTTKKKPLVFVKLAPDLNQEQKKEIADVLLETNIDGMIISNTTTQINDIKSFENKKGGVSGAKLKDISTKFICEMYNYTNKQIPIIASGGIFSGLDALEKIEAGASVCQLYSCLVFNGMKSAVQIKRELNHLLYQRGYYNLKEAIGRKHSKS
Test: Literature inhibition data for soluble recombinant PfDHODH (s-PfDHODH), dodecylubiquinone as substrate
Assay type: biochemical
Recorded Metric: Ki (nM)
Numbers only here, please. The scale is nM.

Here is how some molecules turned out for Ki.
Cc1c(C(=O)Nc2ccc(F)c(Cl)c2)cccc1[N+](=O)[O-]	40
Cc1cc(Nc2ccc(C(N)=O)cc2)n2ncnc2n1	80000
CCOC(=O)C(=CNc1ccc2sc3ccccc3c2c1)C(=O)OCC	20

Form field Ki, entry C/C(O)=C(/C#N)C(=O)Nc1ccc(-c2c(Cl)cccc2Cl)cc1Cl : 1200

Form field Ki, entry O=C(Nc1ccc(Cl)cc1Cl)c1ccc2ccccc2c1 : 30

Form field Ki, entry Cc1c(C(=O)Nc2cccc3ccccc23)cccc1[N+](=O)[O-] : 30

* * *

Tested System: s-PfDHODH (Plasmodium falciparum, UniProt Q08210)
Test: Literature inhibition data for soluble recombinant PfDHODH (s-PfDHODH), dodecylubiquinone as substrate
Assay type: biochemical
Applied Conditions: converted from literature IC50 assuming competitive inhibition against DQ (Cheng and Prusoff); read-out: PfDHODH Ki
# Ki listing for each entry below

Form field Ki, entry C/C(O)=C(\C#N)C(=O)Nc1ccc(-c2ccccc2Cl)cc1C(F)(F)F : 730 nM

Form field Ki, entry Cc1cc(Nc2ccc(OC(F)F)cc2)n2ncnc2n1 : 1120 nM

Form field Ki, entry COc1ccc(Nc2cc(C)nc3ncnn23)cc1 : 1840 nM

Form field Ki, entry CCOC(=O)C(=CNc1ccc2[nH]ncc2c1)C(=O)OCC : 3200 nM

Form field Ki, entry Cc1cc(Nc2ccc(F)c(C)c2)n2ncnc2n1 : 1840 nM
